method-summary: in vitro
condition-notes: rat, liver microsomes
observable: microsomal CLint at 1 µM (µL/min/mg)

The examples below pair each entry with its known result.
COc1cc(C(=O)NS(C)(=O)=O)ccc1-c1cnc(OC2CCC2)c(Cl)c1    17
COc1cc(C(=O)NS(C)(=O)=O)ccc1-c1cnc(OCC(C)C)c(Cl)c1    32

1 = CC(C)COc1ncc(-c2ccc(C(=O)NS(C)(=O)=O)c(F)c2)cc1Cl
2 = CC(C)COc1ncc(-c2ncc(C(=O)NS(C)(=O)=O)cc2F)cc1Cl
q: When the recorded microsomal CLint at 1 µM values are compared, which is smaller: that of 1 or that of 2 ? Answer format: the label of the selected item.
a: 2
(2: 18 µL/min/mg, 1: 28 µL/min/mg)
